Origin of measurements: PubChem BioAssay AID624330

target: UniProtKB Q9H0H5; experiment: blockers of MgcRacGAP-driven Rac1 GTP hydrolysis – biochemical, ADP Hunter fluorescence, primary and confirmatory, confirmation (AID 624330); details: MgcRacGAP-stimulated Rac1 GTP hydrolysis, GST-tagged Rac1 F28L mutant substrate;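 further: fluorescence reports GDP produced by GAP-driven GTP hydrolysis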
Sequence (Q9H0H5 whole entry, looked up): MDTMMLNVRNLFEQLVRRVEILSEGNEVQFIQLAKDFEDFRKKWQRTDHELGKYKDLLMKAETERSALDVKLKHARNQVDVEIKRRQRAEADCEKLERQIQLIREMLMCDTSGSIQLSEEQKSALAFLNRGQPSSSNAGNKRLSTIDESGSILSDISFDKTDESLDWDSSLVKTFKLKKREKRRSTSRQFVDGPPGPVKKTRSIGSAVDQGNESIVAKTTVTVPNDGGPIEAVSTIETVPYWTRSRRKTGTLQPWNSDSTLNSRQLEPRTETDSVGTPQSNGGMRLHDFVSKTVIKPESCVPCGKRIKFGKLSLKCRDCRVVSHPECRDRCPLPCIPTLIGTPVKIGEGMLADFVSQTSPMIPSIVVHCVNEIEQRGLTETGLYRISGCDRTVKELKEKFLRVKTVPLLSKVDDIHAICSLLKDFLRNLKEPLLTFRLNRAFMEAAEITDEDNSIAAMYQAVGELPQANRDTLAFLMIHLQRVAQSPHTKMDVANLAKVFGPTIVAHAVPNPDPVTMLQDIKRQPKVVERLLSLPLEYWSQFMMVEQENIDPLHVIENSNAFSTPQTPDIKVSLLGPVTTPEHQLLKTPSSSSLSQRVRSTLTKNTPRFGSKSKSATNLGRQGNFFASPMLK
pIC50: −log10 of the molar value.
// pIC50 lookup, one value per entry

>  <compound>
C#CCOCCOCCOCCNc1nc(N2CCN(C(=O)CCCCCCCCCCNC(=O)[C@@H](CCSC)n3cc(CCO)nn3)CC2)nc(N2CCN(C(=O)CCCCCCCCCCNC(=O)[C@H](CO)n3cc(CCCCCN)nn3)CC2)n1

>  <tested-on>
UniProtKB Q9H0H5

>  <pIC50>
4.30

$$$$
>  <compound>
C#CCOCCOCCOCCNc1nc(N2CCN(C(=O)[C@H](CCCCN)n3cc([C@@H](N)C(C)CC)nn3)CC2)nc(N2CCN(C(=O)[C@H](Cc3cc4ccccc4[nH]3)n3cc([C@@H](N)C(C)CC)nn3)CC2)n1 (some centres not stated)

>  <tested-on>
UniProtKB Q9H0H5

>  <pIC50>
4.17

$$$$
